Would you kindly list kon for each of these binders?
- ASSAYED SYSTEM: T1, murine PRLR (Biacore antigen) (murine, UniProt Q08501 20-229, limits assumed)
- T1 construct: also called muPRLR
- T1 sequence (looked up): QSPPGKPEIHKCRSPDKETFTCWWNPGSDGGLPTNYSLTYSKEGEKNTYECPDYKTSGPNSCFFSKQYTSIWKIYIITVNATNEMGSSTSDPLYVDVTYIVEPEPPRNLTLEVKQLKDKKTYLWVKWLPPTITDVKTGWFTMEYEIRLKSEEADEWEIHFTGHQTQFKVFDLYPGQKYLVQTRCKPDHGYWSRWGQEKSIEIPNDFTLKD
- PROTOCOL: SPR Biacore
Give just the number in M⁻¹ s⁻¹; leave the unit off.

## Input What kon value was documented for this binder, Ab5 (antibody, V domains shown, murine monoclonal, isotype G2a; also called murine Ab5) VH: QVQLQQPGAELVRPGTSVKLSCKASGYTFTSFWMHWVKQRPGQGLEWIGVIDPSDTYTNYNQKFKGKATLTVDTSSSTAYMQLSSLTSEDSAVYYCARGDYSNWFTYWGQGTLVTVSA VL: DVVMTQTPLSLPVSLGDQASISCRSSQRLVHSNGNTYLHWYLQKPGQSPKLLIYKVSNRFSGVPDRFSGSGSGTDFTLKISRVEAEDLGVYFCSQSTHVPWTFGGGTKLEIK ?
## Output 202000

## Input Which measured kon value corresponds to Ab27 (antibody, human IgG1, kappa, V domains shown, humanized from Ab5; G1; also called Ab2 HC.1 and Ab2 LC.1a) VH: EVQLVQSGAEVKKPGSSVKVSCKASGYTFTSFWMHWVRQAPGQGLEWMGVIDPSDTYTNYNQKFKGRVTITADESTSTAYMELSSLRSEDTAVYYCARGDYSNWFTYWGQGTLVTVSS VL: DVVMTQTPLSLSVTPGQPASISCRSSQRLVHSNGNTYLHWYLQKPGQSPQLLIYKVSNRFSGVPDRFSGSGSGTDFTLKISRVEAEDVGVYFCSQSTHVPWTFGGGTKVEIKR ?
## Output 134000

## Input Entry under review: Ab39 (antibody, human IgG1, kappa, V domains shown, humanized from Ab7; G1; also called Ab4 HC.1a and Ab4 LC.1a) VH: EVQLVQSGAEVKKPGSSVKVSCKASGYTFTSYWIHWVRQAPGQGLEWIGEIDPSDSYTNYNQKFKGRATLTVDKSSSTAYMELSSLRSEDTAVYYCARSFFTNWFAYWGQGTLVTVSS VL: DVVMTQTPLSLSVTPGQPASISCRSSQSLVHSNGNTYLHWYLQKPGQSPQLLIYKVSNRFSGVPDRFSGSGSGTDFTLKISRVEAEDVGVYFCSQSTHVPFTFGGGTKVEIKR . Reported kon?
## Output 57600

## Input What kon value was documented for this binder, chAb7 (antibody, human IgG1, kappa, V domains shown, chimeric, murine variable and human G1/kappa constant regions) VH: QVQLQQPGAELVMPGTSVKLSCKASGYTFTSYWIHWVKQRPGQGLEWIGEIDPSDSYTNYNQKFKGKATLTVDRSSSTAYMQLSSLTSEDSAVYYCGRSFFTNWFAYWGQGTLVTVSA VL: DVVMTQTPLSLPVSLGDQASISCRSSQSLVHSNGNTYLHWYLQKPGQSPKLLIYKVSNRFSGVPDRFSGSGSGTDFTLKINRVEAEDLGVYFCSQSTHVPFTFGSGTKLEIKT ?
## Output 79500
